ASSAY_DETAILS: Cmax in human at 1000 mg, po
Type: ADME, organism-based
Design: dose 1000 mg, route oral
MEASUREMENT_PARAMETERS: in vivo

SMILES_NOTATION | Cmax [ng/mL]
CC[C@H]1OC(=O)[C@H](C)[C@@H](O[C@H]2C[C@@](C)(OC)[C@@H](O)[C@H](C)O2)[C@H](C)[C@@H](O[C@@H]2O[C@H](C)C[C@H](N(C)C)[C@H]2O)[C@](C)(O)C[C@@H](C)CN(C)[C@H](C)[C@@H](O)[C@]1(C)O | 1000
Cc1onc(-c2c(Cl)cccc2Cl)c1C(=O)N[C@@H]1C(=O)N2[C@@H]1SC(C)(C)[C@@H]2C(=O)O | 30000

====

ASSAY_DETAILS: Half life in human at 1000 mg, im
Format: ADME, organism-based
MEASUREMENT_PARAMETERS: in vivo
QUANTITY_NAME: half-life

SMILES_NOTATION | QUANTITY_NAME | VALUE
CO/N=C(\C(=O)N[C@@H]1C(=O)N2C(C(=O)O)=C(COC(N)=O)CS[C@H]12)c1ccco1 | half-life | 1.5 h

====

ASSAY_DETAILS: Half life in human at 1000 mg, po
Type: ADME, organism-based
MEASUREMENT_PARAMETERS: in vivo

SMILES_NOTATION | UNITS_SYMBOL | half-life
CC[C@H]1OC(=O)[C@H](C)[C@@H](O[C@H]2C[C@@](C)(OC)[C@@H](O)[C@H](C)O2)[C@H](C)[C@@H](O[C@@H]2O[C@H](C)C[C@H](N(C)C)[C@H]2O)[C@](C)(O)C[C@@H](C)CN(C)[C@H](C)[C@@H](O)[C@]1(C)O | h | 10
Cc1onc(-c2c(Cl)cccc2Cl)c1C(=O)N[C@@H]1C(=O)N2[C@@H]1SC(C)(C)[C@@H]2C(=O)O | h | 1

The values you see were collected from ChEMBL document CHEMBL1649157.
